From: PubChem BioAssay (NCI)

system: UACC-62 melanoma; assay: NCI-60 one-dose screen, 48 h; details: 10 µM unless noted
Compounds without any hit were thinned out: in the full panel of roughly 83,000, 20% have a hit. Activity calls are given as the source filed them. The calls were made as follows: active = growth percent below 10; inactive = the rest.
Parameter call: string, one of T = active, F = inactive

Query: recorded result category for "C[C@@H](Oc1cc(-n2cnc3ccc(CN4CCN(C)CC4)cc32)sc1C(N)=O)c1ccccc1C(F)(F)F" in this test
F

Please let me know the test result on file for "COc1cccc(NC(=O)Nc2ccc(Nc3ncnc4sc5c(c34)CCN(C(=O)CCl)C5)cc2)c1" .
F

Hi, do you know how "COc1ccc(/C(C)=C(\c2ccc(Cl)cc2)c2ccc(OCCN3CCCCCC3)cc2)cc1" came out in this test?
F

What did this assay record as the result for "CN(C)C1CCN(C(=O)c2ccc(NC(=O)Nc3ccc(-c4nc(N5CCOCC5)nc(N5CCOCC5)n4)cc3)cc2)CC1" ?
T

In this assay, the call recorded for CCCc1cc2cc(-n3nc(C)c4c3CC(C)(C)CC4=O)cc(NC3CCC(O)CC3)c2c(=O)[nH]1 (stereo not drawn) was what?
F

For this molecule, state the assay outcome: "CCCCN1C(=O)c2cccc3c(-c4ccc5c(c4)ncn5C4CCCCC4)ccc(c23)C1=O"
F

Outcome? "O=C(NC1CCNCC1)c1[nH]ncc1NC(=O)c1c(Cl)cccc1Cl"
T

Hi team, can someone confirm the assay call for "COc1cc2ncnc3c2cc1OCCCCCN(C)Cc1ccc(Br)cc1N3" ?
F

Check the results log: what was the call for "O=C(Nc1cccc([N+](=O)[O-])c1)c1ccc(Cl)c(Cl)c1" ?
F

Each molecule tested received a call. Report the one for "Clc1ccc2c(NCCCNCc3ccc4c(c3)OCO4)ccnc2c1" .
F

What classification did "Cc1ccc(-c2nc3ccc(Cl)cn3c2NC2CCCCC2)o1" end up with in this test?
F

Just curious, what result did "ClCc1ccc(-c2ccc(Cn3cnc4nc(Cl)nc(Cl)c43)cc2)cc1" get here?
T

Assay result, entry "CC[n+]1c(/C=C/C=C2\N(C)c3ccccc3C2(C)C)sc2ccccc21" — outcome?
F

What classification did "CO[C@H]1C[C@@H]2CC[C@@H](C)[C@@](O)(O2)C(=O)C(=O)N2CCCC[C@H]2C(=O)O[C@H]([C@H](C)C[C@@H]2CC[C@@H](OP(C)(C)=O)[C@H](OC)C2)CC(=O)[C@H](C)/C=C(\C)[C@@H](O)[C@@H](OC)C(=O)[C@H](C)C[C@H](C)\C=C/C=C/C=C/1C" end up with in this test?
F

Given "NC(=O)c1c(OCc2c(F)cc(Br)cc2F)nsc1NC(=O)NCCCCN1CCCC1" , state the outcome it received in this test.
T

Assay result, entry "CCN1CCN(c2nc(C)cc(N(CCNc3ccnc4cc(Cl)ccc34)Cc3ccc4c(c3)OCO4)n2)CC1" — outcome?
F

Could you kindly confirm the outcome this assay logged for "COc1ccc(F)c(F)c1C(=O)c1cnc(NC2CCN(S(C)(=O)=O)CC2)nc1N" ?
T

Dear all, I need the recorded test outcome for COc1ccc(C2CC(=O)c3c(O)c(OC)c(OC)c(OC)c3O2)cc1O (stereo not drawn) , thank you.
F
